Test system: Plasmodium berghei
experimental_details: Screen against P. berghei liver stage (PbLuc), transformed with Luciferase, at 10uM
Format: functional, HepG2
assay_setup: tested at 10 uM
Screen size: about 69,000 compounds; about 8,600 (12%) showed an effect of 50% or more. The sample holds strong results, similar compounds and a random draw of the others, so the mix is not that of the screen.
Listed next: entries and their corresponding INHIBITION.
Write the figure, then the unit, nothing else.

Cc1occc1-c1nc(NC2CCCC2)ncc1-c1ccccn1; 62.9%
Cc1cc(C2CCNCC2)nc(-c2ccsc2)n1; 20.2%
O=C(O)c1ccccc1-c1cnc(CNC(=O)C2CCOCC2)nc1; -17.35%
c1ccc(Oc2ccc(OC34CCCN(CC3)C4)cc2)cc1 (stereo unspecified); 57.6%
Cc1cc(-c2cnc(NC3CCCC3)nc2-c2ccc(C)o2)on1; 11.1%

Exercise: Look at this compound and give its reported INHIBITION. "Nc1cccnc1N1CCC(c2ccccc2)CC1"
Key: 6.29%

Exercise: Look at this compound and give its reported INHIBITION. "Cc1cc(-c2cnc(NC3CCCC3)nc2-c2ccoc2C)on1"
Key: 78.5%

Exercise: Look at this compound and give its reported INHIBITION. "Cc1cc(-c2cnc(NC3CC3)nc2-c2ccoc2C)on1"
Key: 58.1%

Exercise: Look at this compound and give its reported INHIBITION. "Cn1cc(-c2cnc(-c3ccnn3C)nc2)cc1C(=O)N1CCCC1"
Key: -4.26%

Exercise: Look at this compound and give its reported INHIBITION. "Cc1ccc(C(=O)N2CCn3cnc(COCC4CC4)c3C2)cn1"
Key: 45.2%
